B1: Hairpin Ribozyme (parent)
chain: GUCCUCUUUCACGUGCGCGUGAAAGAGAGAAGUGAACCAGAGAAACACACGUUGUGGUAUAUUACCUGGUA

Variants of: B1
Test: self-cleavage, relative activity (ratio to wild type); higher = more cleavage; co-transcriptional
Classify on self-cleavage using LOW: < 0.2; MEDIUM: ≥ 0.2 and < 0.3; HIGH: ≥ 0.3

[[record]]
variant_identifier = "G57U A59G"
group_label = "MEDIUM"

[[record]]
variant_identifier = "U8C U14C"
group_label = "HIGH"

[[record]]
variant_identifier = "G15A G42A"
group_label = "LOW"

[[record]]
variant_identifier = "A61C U62C"
group_label = "LOW"

[[record]]
variant_identifier = "U8A U14G"
group_label = "HIGH"

[[record]]
variant_identifier = "U14C G27A"
group_label = "HIGH"

[[record]]
variant_identifier = "A26C G54C"
group_label = "MEDIUM"

[[record]]
variant_identifier = "U8G C37A"
group_label = "MEDIUM"

[[record]]
variant_identifier = "G27U C46G"
group_label = "LOW"

[[record]]
variant_identifier = "A47U C66A"
group_label = "LOW"

[[record]]
variant_identifier = "U53A A61C"
group_label = "LOW"

[[record]]
variant_identifier = "G17U C65U"
group_label = "HIGH"

[[record]]
variant_identifier = "A59U G68U"
group_label = "LOW"

[[record]]
variant_identifier = "A43U A47C"
group_label = "LOW"

[[record]]
variant_identifier = "G29U A41C"
group_label = "MEDIUM"

[[record]]
variant_identifier = "A22C U62A"
group_label = "LOW"

[[record]]
variant_identifier = "C38A U52C"
group_label = "LOW"

[[record]]
variant_identifier = "G40C U53C"
group_label = "LOW"

[[record]]
variant_identifier = "U8A A23C"
group_label = "HIGH"

[[record]]
variant_identifier = "U2A U55C"
group_label = "LOW"

[[record]]
variant_identifier = "A31G U53G"
group_label = "HIGH"

[[record]]
variant_identifier = "C12U A44U"
group_label = "LOW"

[[record]]
variant_identifier = "C6G G25A"
group_label = "HIGH"

[[record]]
variant_identifier = "C3G G40C"
group_label = "LOW"

[[record]]
variant_identifier = "G54C U67A"
group_label = "LOW"

[[record]]
variant_identifier = "U5G A44U"
group_label = "LOW"

[[record]]
variant_identifier = "G17U C46G"
group_label = "LOW"

[[record]]
variant_identifier = "G21C A23C"
group_label = "HIGH"

[[record]]
variant_identifier = "G17C U53A"
group_label = "HIGH"

[[record]]
variant_identifier = "C37G U67A"
group_label = "MEDIUM"

[[record]]
variant_identifier = "U8C C48G"
group_label = "LOW"

[[record]]
variant_identifier = "U9G A45U"
group_label = "LOW"

[[record]]
variant_identifier = "A22C C66A"
group_label = "MEDIUM"

[[record]]
variant_identifier = "C4U C65U"
group_label = "LOW"

[[record]]
variant_identifier = "G1A G13A"
group_label = "LOW"

[[record]]
variant_identifier = "U9C G27A"
group_label = "HIGH"

[[record]]
variant_identifier = "C38U"
group_label = "HIGH"

[[record]]
variant_identifier = "G29C A30G"
group_label = "MEDIUM"

[[record]]
variant_identifier = "A35U G57U"
group_label = "HIGH"

[[record]]
variant_identifier = "G1C C18A"
group_label = "LOW"

[[record]]
variant_identifier = "U8G A39C"
group_label = "HIGH"

[[record]]
variant_identifier = "G27C G42U"
group_label = "LOW"

[[record]]
variant_identifier = "G15C A24U"
group_label = "HIGH"

[[record]]
variant_identifier = "G25U C37U"
group_label = "HIGH"

